Tested on: NCI-H23 lung
Test: NCI tumour cell line growth inhibition, 48 h
Parameter TGI: see the listing below.
measured_parameter: TGI

compound	assay_value
N=C(CC(=O)Nc1ccccn1)c1ccccc1	> 100 µM
COC(=O)[C@@]12C3=NO[C@]1(C(=O)OC)C(O[Si](C)(C)C(C)(C)C)[C@@H](OC(C)=O)[C@@H](OC(C)=O)[C@@H]2[C@@H](OCc1ccccc1)CC3 (some centres undefined)	> 100 µM
S=C(SSC(=S)N1CCCCC1)N1CCCCC1	36 µM
COc1ccc(-c2oc3cc(O)c(OC)c(O)c3c(=O)c2O)cc1	> 100 µM
CCN(CC)c1c(C)nnn1C1OC(COC(C)=O)C(OC(C)=O)C(OC(C)=O)C1OC(C)=O (centres undefined)	> 100 µM
COc1cc(C(=O)n2nc(N)c3c(C)cc(C)nc32)cc(OC)c1OC	> 100 µM
COc1cc(O)c(Cc2ccccc2O)c(O)c1C(=O)CCc1ccccc1	12 µM
CN1CCN(c2ccc(NC3=CC(=O)c4ncncc4C3=O)cc2)CC1	1.67 µM
O=C1C(Cl)=C(NCCCN(CCCNC2=C(Cl)C(=O)c3ccccc3C2=O)C2=C(Cl)C(=O)c3ccccc3C2=O)C(=O)c2ccccc21	5.26 µM
NC(=O)/N=C/c1c(O)c2ccccc2oc1=O	> 100 µM
COc1ccc2nc3ccccc3c(NCCNCC(C)O)c2c1 (centres undefined)	2.05 µM
COc1ccc([C@H]2CC3C(=O)N(c4ccc(OC)cc4)C(=O)C3c3[nH]c4ccccc4c32)cc1 (some centres undefined)	> 100 µM
Oc1[nH]c2ccccc2c1C=Nc1ccc(-n2cncn2)cc1	> 25 µM
Brc1ccc(-c2cc3c(cc2C2SCCS2)OCO3)cc1	> 100 µM
CCSc1nc(N/N=C/c2cccs2)c2cnn(CO)c2n1	17.3 µM
O=c1[nH]c(=O)n(C2CC(O)C(CO)O2)cc1Br (centres undefined)	> 100 µM
CN(C)N=Nc1ccc(S(N)(=O)=O)cc1	> 100 µM
COc1cc(C2NC(=O)C(C#N)=C(Nc3cccc(C)c3)S2)ccc1O (centres undefined)	> 100 µM
NC1=Nc2ccccc2Sc2cccc(F)c21	> 100 µM
COc1ccc(C2=NNC(=O)c3ccccc3N2c2nc(-c3cccs3)nc3cc(OC)c(OC)cc23)cc1	> 100 µM
CNC(=O)CNC(=O)N(C[C@@H]1CCCN1C(=O)[C@H](CC(C)C)NC(=O)OC(C)(C)C)C(C)C	> 100 µM
O=S(O)c1cc(Cl)c(O)c(Cl)c1	> 100 µM
Clc1ccc(-c2nc(NCc3ccco3)c3ccccc3n2)c(Cl)c1	60.5 µM
O=C1/C(=C/c2ccc([N+](=O)[O-])o2)Oc2ccc(Cl)cc21	5.07 µM
O=C(NC1=C(Cl)C(=O)c2ccccc2C1=O)C(=O)C(C(=O)c1ccc2ccccc2c1)C1OC(=O)c2ccccc21 (centres undefined)	13.4 µM
CC1=C2C=CC(=O)C[C@@]2(C)CCC1	> 100 µM
Nc1ccn(C2CCC(COP(=O)(O)OCC(O)COP(=O)(O)OCC3OC(n4cc(F)c(=O)[nH]c4=O)CC3O)O2)c(=O)n1 (centres undefined)	> 100 µM
CC(C)(C)OC(=O)N1N=CCC1c1ccccc1 (centres undefined)	> 100 µM
CC(=O)NC(C)(C)C1CCC(C)CC1 (centres undefined)	> 100 µM
CC(NNC(=O)c1ccncc1)c1cccc(C(F)(F)F)c1 (centres undefined)	> 100 µM
CCN(CC)C(=S)SS(C)(=O)=O	35.4 µM
C[C@]12CCC(=O)C[C@@H]1CC[C@@H]1[C@@H]2CC[C@]2(C)[C@@H](OC(=O)N(CCCl)N=O)CC[C@@H]12	25.4 µM
Cc1ccc(Nc2nc(-c3ccc(-c4ccc([N+](=O)[O-])cc4)o3)cs2)cc1	94.5 µM
COC(=O)C(CCC1(C)OCCO1)=[N+]=[N-]	> 100 µM

---

Test system: NCI-H226 lung
Experiment: NCI tumour cell line growth inhibition, 48 h; in the data active = GI50 below about 0.43 µM; inactive = the rest
Labels: active, inactive

compound_structure_string	cat
COc1ccc2c(c1)C(=O)c1c-2n(CCCN(C)C)c(=O)c2cc([N+](=O)[O-])ccc12	active
CSc1ccc(C(=O)/C=C/c2ccc(Cl)cc2Cl)cc1	inactive
CN1CCN(c2ccc(NC3=CC(=O)c4ncncc4C3=O)cc2)CC1	inactive

---

Tested on: SK-OV-3 ovarian
Test: NCI tumour cell line growth inhibition, 48 h
Quick list: TGI per entry.

compound	TGI
O=C1C=CC(=O)c2c1nc(CBr)[nH]c2=O	> 100 µM
COc1ccc(C2=NNC(=O)c3ccccc3N2c2nc(-c3cccs3)nc3cc(OC)c(OC)cc23)cc1	> 100 µM
Clc1ccc(-c2nc(NCc3ccco3)c3ccccc3n2)c(Cl)c1	> 100 µM
COc1cccc(CCNc2c(C#N)c3n(c4ccccc4[n+]3C)c3ncccc23)c1	42.1 µM
N#Cc1ccc(C2SCc3nc4ccccc4n32)cc1 (centres undefined)	> 100 µM
Nc1ccn(C2CCC(COP(=O)(O)OCC(O)COP(=O)(O)OCC3OC(n4cc(F)c(=O)[nH]c4=O)CC3O)O2)c(=O)n1 (centres undefined)	> 100 µM
Cc1cc(N2CCOCC2)nc(NCc2cc(Nc3ccnc4cc(Cl)ccc34)ccc2F)n1	3.48 µM
CC(C)(C)[Si](C)(C)OC1[C@@H](COC(=O)NC(=O)CCl)O[C@@H](n2cnc3c(N)ncnc32)[C@H]1O[Si](C)(C)C(C)(C)C (some centres undefined)	5.95 µM
COC(=O)c1c2c(cc3c1CC1(Cc4ccccc4C1)C3)CCC2	> 100 µM
CCOC(=O)/C=C1/SC(=Nc2ccc(C#N)cc2)N(Cc2ccco2)C1=O	29.9 µM
COc1cccc(OC)c1NC(=O)C(=O)Nn1c(NNC(=O)c2ccncc2)nc2ccccc2c1=O	> 100 µM
FC(F)(F)c1cccc(-c2[nH]ncc2-c2nnnn2-c2ccccc2)c1	21.9 µM
O=c1[nH]c2ccc(CC(=S)N3CCOCC3)cc2o1	> 100 µM
CN(C)c1ccc2[nH]c3c(C(N)=O)cc(=O)c(=O)c=3oc2c1	> 100 µM

---

Test system: HT29 colon
Assay: NCI tumour cell line growth inhibition, 48 h

molecule	TGI
CN1C(=O)C23CCCC2CC1(c1ccccc1)S3 (stereo not drawn)	> 100 µM
CSC(C1c2ccccc2N(C)c2[nH]c(=O)n(C)c(=O)c21)S(=O)(=O)c1ccc(C)cc1 (stereo not drawn)	> 100 µM
NC(=O)/N=C/c1c(O)c2ccccc2oc1=O	> 100 µM

---

Tested on: CAKI-1 renal
Test: NCI tumour cell line growth inhibition, 48 h
TGI values for the compounds below.

compound	system	TGI
O=C(N/C(=C\c1ccc(/C=C(\NC(=O)c2ccccc2)c2nc3c(O)nc(S)nc3[nH]2)cc1)c1nc2c(O)nc(S)nc2[nH]1)c1ccccc1	CAKI-1 renal	> 100 µM
O=c1/c(=C/c2ccccn2)sc2nc3cc4c(cc3n12)OCCO4	CAKI-1 renal	> 100 µM
CC1=C2C=CC(=O)C[C@@]2(C)CCC1	CAKI-1 renal	> 100 µM
COc1ccc2[nH]c3c(c2c1)CC(=O)N1CCC[C@H](C1)CC31OCCCO1	CAKI-1 renal	> 100 µM
CC1=C(C(=O)Nc2ccc(Cl)c(Cl)c2)C(c2cccc(Cl)c2)NC(=S)N1 (stereo not given)	CAKI-1 renal	> 50 µM

---

Tested on: UACC-62 melanoma
Assay: NCI tumour cell line growth inhibition, 48 h
measured_parameter: TGI

compound_structure_string	assay_value
C=CCOC(=O)Cn1ccc(=O)[nH]c1=O	> 100 µM
O=S(=O)(c1ccccc1)c1ccc(-c2nc(-c3ccc4c(c3)Sc3ccccc3S4)cs2)cc1	> 100 µM
CCCCCCCCCCCCCS(=O)(=O)NCC(N)=O	> 100 µM
O=C1NC(=NCCc2ccc(Br)cc2)S/C1=C\c1ccc2ncccc2c1	> 25 µM

---

Test system: 786-0 renal
Test: NCI tumour cell line growth inhibition, 48 h

molecule	TGI
CC#CCCCC1(C)CCNC1=S (centres undefined)	> 10 µM
COc1ccc(C(=O)C(C(=O)C(=O)NCCCNC(=O)C(=O)C(C(=O)c2ccc(OC)cc2)c2ccc(OC)cc2)c2ccc(OC)cc2)cc1 (centres undefined)	> 100 µM
COc1ccc(C(O)c2ccccn2)cc1 (centres undefined)	> 100 µM
O=C1NC(=NCCc2ccc(Br)cc2)S/C1=C\c1ccc2ncccc2c1	> 25 µM

---

Listed here: items and their measured TGI.
Tested on: HT29 colon
Assay: NCI tumour cell line growth inhibition, 48 h
measured_parameter: TGI

molecule	system	assay_value
CCNC(=S)NNC(=O)c1ccccc1Nc1ccccc1C(=O)NNC(=S)NCC	HT29 colon	> 100 µM
O=C1NC(=NCCc2ccc(Br)cc2)S/C1=C\c1ccc2ncccc2c1	HT29 colon	> 25 µM
COc1ccc(C(O)c2ccccn2)cc1 (stereo not given)	HT29 colon	> 100 µM
COc1ccc(C(=O)C(C(=O)C(=O)NCCCNC(=O)C(=O)C(C(=O)c2ccc(OC)cc2)c2ccc(OC)cc2)c2ccc(OC)cc2)cc1 (stereo not given)	HT29 colon	> 100 µM
CC#COS(=O)(=O)c1ccc(C)cc1	HT29 colon	> 100 µM

Attribution: PubChem BioAssay (NCI)
